# credit: patent US10065970B2

Biological target: PI3Kα (alpha) (Homo sapiens (Human))
Sequence (P42336 whole entry): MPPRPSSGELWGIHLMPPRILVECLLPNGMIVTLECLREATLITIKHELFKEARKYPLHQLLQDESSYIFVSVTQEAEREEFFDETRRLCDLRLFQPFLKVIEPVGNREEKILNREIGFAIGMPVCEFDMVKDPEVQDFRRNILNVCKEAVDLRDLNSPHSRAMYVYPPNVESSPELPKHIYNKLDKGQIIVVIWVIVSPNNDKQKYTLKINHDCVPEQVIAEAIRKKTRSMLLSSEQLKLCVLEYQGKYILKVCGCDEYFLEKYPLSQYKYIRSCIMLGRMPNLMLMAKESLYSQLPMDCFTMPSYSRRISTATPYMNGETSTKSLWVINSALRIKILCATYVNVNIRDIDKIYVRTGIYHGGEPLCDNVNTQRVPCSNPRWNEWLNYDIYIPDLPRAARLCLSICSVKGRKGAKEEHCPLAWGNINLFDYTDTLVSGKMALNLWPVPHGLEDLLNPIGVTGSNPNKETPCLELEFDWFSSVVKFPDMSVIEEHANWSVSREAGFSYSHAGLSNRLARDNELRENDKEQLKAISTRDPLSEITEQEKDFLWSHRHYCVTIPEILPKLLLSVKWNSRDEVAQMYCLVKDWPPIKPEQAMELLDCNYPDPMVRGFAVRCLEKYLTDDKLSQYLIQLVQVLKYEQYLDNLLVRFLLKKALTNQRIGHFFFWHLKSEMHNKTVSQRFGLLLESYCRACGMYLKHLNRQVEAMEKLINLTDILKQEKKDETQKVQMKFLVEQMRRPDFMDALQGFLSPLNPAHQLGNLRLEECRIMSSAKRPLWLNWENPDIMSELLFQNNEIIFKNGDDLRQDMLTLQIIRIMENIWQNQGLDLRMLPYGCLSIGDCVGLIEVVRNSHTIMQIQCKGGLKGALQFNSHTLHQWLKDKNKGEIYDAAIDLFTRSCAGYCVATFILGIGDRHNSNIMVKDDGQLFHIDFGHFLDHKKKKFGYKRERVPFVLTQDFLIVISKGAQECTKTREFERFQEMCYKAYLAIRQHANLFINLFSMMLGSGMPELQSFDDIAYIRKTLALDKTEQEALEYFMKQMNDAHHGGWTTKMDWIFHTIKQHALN
Sequence (P27986 whole entry partner): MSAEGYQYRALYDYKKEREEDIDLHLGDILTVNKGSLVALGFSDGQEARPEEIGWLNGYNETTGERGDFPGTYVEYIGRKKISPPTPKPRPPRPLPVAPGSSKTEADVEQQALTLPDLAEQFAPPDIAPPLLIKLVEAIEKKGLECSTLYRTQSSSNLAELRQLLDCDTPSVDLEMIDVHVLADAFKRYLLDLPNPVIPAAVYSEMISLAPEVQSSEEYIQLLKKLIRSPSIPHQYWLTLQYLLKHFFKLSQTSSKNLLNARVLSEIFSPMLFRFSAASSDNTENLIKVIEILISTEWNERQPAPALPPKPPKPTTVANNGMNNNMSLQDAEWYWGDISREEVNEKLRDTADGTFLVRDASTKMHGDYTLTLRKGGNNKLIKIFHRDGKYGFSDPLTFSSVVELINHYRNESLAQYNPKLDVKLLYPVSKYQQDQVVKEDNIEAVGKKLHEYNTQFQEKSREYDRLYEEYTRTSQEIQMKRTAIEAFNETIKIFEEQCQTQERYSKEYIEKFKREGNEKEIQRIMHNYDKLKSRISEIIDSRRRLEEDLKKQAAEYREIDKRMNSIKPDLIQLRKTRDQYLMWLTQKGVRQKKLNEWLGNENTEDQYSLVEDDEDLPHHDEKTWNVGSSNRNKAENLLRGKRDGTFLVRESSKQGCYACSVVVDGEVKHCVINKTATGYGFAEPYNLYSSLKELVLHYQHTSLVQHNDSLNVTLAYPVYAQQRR
Test: p110α (alpha) PI3K Binding Assay (ADP-Glo lipid kinase reaction)
Format: biochemical
Settings: PI3K alpha 0.2 nM, ATP 40 μM, PIP2:3PS 50 μM, 120 min, room temperature; Ki by Morrison Equation; read-out: PI3Kα-(alpha) ATP (Ki) micromolar
propertyName: Ki (nM)
Numeric answer only, unit nM assumed.

molecule	Ki (nM)
Nc1nc2cc(-n3nc4cc(Br)cc5c4c3CCCO5)ccc2o1	50.8
NC(=O)[C@@H](Nc1cc2c3c(c1)nc(N1Cc4cnc(N)nc4C1)n3CCCO2)C1CC1	18.2
C[C@@H](Oc1cc2c3c(c1)nc(-c1ccc4oc(N)nc4c1)n3CCCCO2)C(N)=O	0.032
Cc1nc2cc(-c3nc4cc(N5CCCC5C(N)=O)cc5c4n3CCCO5)ccc2o1 (stereo not shown)	16.2
NC(=O)[C@@H]1CCCN1c1cc2c3c(c1)nc(-c1ccc(N4CCNC4=O)cc1)n3CCCO2	83.7
NC(=O)[C@@H](Nc1cc2c3c(c1)nc(-c1ccc4nc(N)cnc4c1)n3CCCO2)C1CC1	0.056
Nc1nc2cc(-c3nc4cc(NC5CC(F)(F)C5)cc5c4n3CCCO5)ccc2o1	1.64
NC(=O)[C@@H](Nc1cc2c3c(c1)nc(-c1ccc(OC(F)F)cc1)n3CCCO2)C1CC1	490
C[C@@H]1Cn2c(-c3ccc4oc(N)nc4c3)nc3cc(O[C@@H](C)C(N)=O)cc(c32)O1	0.221
Cc1cc(-c2nc3cc(N[C@H](C(N)=O)C4CC4)cc4c3n2CCCO4)cc2nc(N)oc12	0.191

Given item "NC(=O)[C@@H](Nc1cc2c3c(c1)nc(-c1ccc4c(c1)OCCO4)n3CCCO2)C1CC1" , the value recorded as its Ki is 22.9

Record "NC(=O)[C@@H](Nc1cc2c3c(c1)nc(-c1ccc4c(c1)C(=O)NC4)n3CCCO2)C1CC1" , field Ki: 36.7

Looking up "Cc1cc(-c2nc3cc(N[C@H](C(N)=O)C4CC4)cc4c3n2CCCO4)nc(CO)n1" , I see its Ki listed as 45

Value of Ki reported for the molecule NC(=O)[C@@H](Nc1cc2c3c(c1)nc(N1CCCC(O)C1)n3CCCO2)C1CC1 (stereo partly shown) is 398

Ki measured on "NC(=O)[C@@H](Nc1cc2c3c(c1)nc(-c1ccc4nc(N)oc4c1)n3CCCO2)C1CC1" = 0.988

Record "NC(=O)[C@@H](Nc1cc2c3c(c1)nc(-c1ccc4c(c1)OCO4)n3CCCO2)C1CC1" . Reported Ki: 23.3

====

Biological target: PI3Kα (alpha) (Homo sapiens (Human))
Experiment: p110α (alpha) PI3K Binding Assay (ADP-Glo lipid kinase reaction)
Format: biochemical
Settings: PI3K alpha 0.2 nM, ATP 40 μM, PIP2:3PS 50 μM, 120 min, room temperature; Ki by Morrison Equation; read-out: PI3Kα-(alpha) ATP (Ki) micromolar
Recorded Ki determines the label; the label ranges are category 1 (below 0.3 nM), category 2 (0.3 nM to below 200 nM), category 3 (200 nM or more)

A selection of reference data follows.
molecule	labelClass
Nc1nc2cc(-c3nc4cc(N[C@H]5C[C@@H](F)C5)cc5c4n3CCCO5)ccc2o1 (single isomer, unassigned) [Example 203]	category 2
C[C@H](Oc1cc2c3c(c1)nc(-c1cnc(-c4ncn[nH]4)c(F)c1)n3CCCCO2)C(N)=O [Example 307]	category 1
NC(=O)[C@@H](Nc1cc2c3c(c1)nc(-c1ccncc1)n3CCCO2)C1CC1 [Example 165]	category 2
C[C@H](Oc1cc2c3c(c1)nc(-c1ccc4oc(N)nc4c1)n3CCCO2)C(N)=O [Example 162]	category 1

Note: place this molecule into its band. Item: NC(=O)[C@@H](Nc1cc2c3c(c1)nc(-c1cccc(OC(F)F)c1)n3CCCO2)C1CC1 [Example 143]
category 2

Looking at CCc1cc(-c2nc3cc(N[C@H](C(N)=O)C4CC4)cc4c3n2CCCO4)cc2nc(N)oc12 [Example 225] , which class would you pick?
category 2
